B1: HDV Ribozyme (parent)
chain: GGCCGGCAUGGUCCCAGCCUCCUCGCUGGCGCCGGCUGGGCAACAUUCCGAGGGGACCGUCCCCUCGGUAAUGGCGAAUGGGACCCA

variants of: B1; test: self-cleavage, relative activity (ratio to wild type); higher = more cleavage; co-transcriptional
Output Satisfied for self-cleavage not less than 0.5; output Not satisfied otherwise.

[
  {
    "mutationAnnotation": "C32U A71G",
    "label": "Satisfied"
  },
  {
    "mutationAnnotation": "G31A C63G",
    "label": "Not satisfied"
  },
  {
    "mutationAnnotation": "C7A G81U",
    "label": "Not satisfied"
  },
  {
    "mutationAnnotation": "U9A A42U",
    "label": "Satisfied"
  },
  {
    "mutationAnnotation": "C49A C66A",
    "label": "Satisfied"
  }
]

// inclusive: self-cleavage at least 0.5? input: G38A A51G Not satisfied

Is self-cleavage at least 0.5? Consider A56G U65C Satisfied

Does C18A C58A have a reported self-cleavage of at least 0.5? Not satisfied

Hi team, for G5C A16C , is the recorded self-cleavage at or above 0.5? Not satisfied

Please indicate if the recorded self-cleavage for A16G C57U meets or exceeds 0.5. Satisfied

Check this variant for self-cleavage at or above 0.5: C61U G74A Not satisfied

Is the recorded value of self-cleavage equal to or greater than 0.5 for this variant? C61A U69C Satisfied

Given C4A G81C , state whether its self-cleavage is at least 0.5. Not satisfied

Please indicate if the recorded self-cleavage for G1C C13U meets or exceeds 0.5. Not satisfied

Entry G1C U65C : is its self-cleavage no less than 0.5? Not satisfied

Please check the record C18U G40A and state if its self-cleavage is at or above 0.5. Satisfied
